- SYSTEM: T1, His-tagged human IL-1 Rrp2/IL-1 R6 protein (human, UniProt Q9HB29 20-335)
- T1 construct: Bought reagent; also called Human IL-1 Rrp2/IL-1 R6 Protein, His Tag; ACRO Biosystems IL2-H52H6; not shown: His tag
- T1 sequence (looked up): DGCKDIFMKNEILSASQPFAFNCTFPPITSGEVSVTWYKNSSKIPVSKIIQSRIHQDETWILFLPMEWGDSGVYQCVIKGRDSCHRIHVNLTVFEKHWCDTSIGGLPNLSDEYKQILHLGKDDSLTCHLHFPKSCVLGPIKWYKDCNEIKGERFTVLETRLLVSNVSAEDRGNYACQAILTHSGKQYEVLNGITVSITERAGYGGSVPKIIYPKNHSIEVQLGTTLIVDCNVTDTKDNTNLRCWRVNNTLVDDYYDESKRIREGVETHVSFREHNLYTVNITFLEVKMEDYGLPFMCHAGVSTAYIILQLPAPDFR
- PROCEDURE TEXT: SPR (Biacore 8K), His-tagged antigen captured by anti-His on CM5, antibody as analyte, 1:1 model
MEASUREMENT NAME: koff

BINDER: humanized anti-IL-36R antibody 900534 (antibody, V domains shown, IgG1 (human IgG1 L234A/L235A, human kappa)) VH: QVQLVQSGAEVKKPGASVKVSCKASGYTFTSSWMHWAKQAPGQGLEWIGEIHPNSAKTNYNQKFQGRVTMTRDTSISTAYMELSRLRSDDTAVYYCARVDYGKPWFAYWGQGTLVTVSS VL: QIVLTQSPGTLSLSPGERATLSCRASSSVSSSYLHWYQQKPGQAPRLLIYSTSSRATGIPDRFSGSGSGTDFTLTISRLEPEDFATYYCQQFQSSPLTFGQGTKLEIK
koff: 5.1e-05 s⁻¹
--
BINDER: humanized anti-IL-36R antibody 900527 (antibody, V domains shown, IgG1 (human IgG1 L234A/L235A, human kappa); also called HB0034) VH: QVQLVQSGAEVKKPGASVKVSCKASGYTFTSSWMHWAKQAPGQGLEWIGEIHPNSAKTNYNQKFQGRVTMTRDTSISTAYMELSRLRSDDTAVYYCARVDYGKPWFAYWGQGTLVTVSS VL: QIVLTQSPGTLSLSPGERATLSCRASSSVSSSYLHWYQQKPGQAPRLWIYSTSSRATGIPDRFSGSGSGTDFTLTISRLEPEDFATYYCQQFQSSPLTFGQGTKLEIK
koff: 4.37e-05 s⁻¹

Lookup: Identify measured koff corresponding to humanized anti-IL-36R antibody 900513 (antibody, V domains shown, IgG1; built from the chimeric expression plasmids (human IgG1 L234A/L235A, human kappa)) VH: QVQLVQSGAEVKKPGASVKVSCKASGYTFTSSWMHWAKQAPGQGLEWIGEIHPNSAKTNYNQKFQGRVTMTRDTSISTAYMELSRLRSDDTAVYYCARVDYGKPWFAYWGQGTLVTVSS VL: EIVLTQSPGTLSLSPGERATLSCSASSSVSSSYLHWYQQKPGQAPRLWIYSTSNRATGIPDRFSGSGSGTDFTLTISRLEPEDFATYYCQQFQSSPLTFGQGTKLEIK
Found: 1.34e-05 s⁻¹
